Attribution: paper PMC5426849

biological target: Brk SH2 domain, monomeric, cleaved from GST (human, UniProt Q13882 78-170); experiment: fluorescence polarisation
Sequence (Q13882 78-170): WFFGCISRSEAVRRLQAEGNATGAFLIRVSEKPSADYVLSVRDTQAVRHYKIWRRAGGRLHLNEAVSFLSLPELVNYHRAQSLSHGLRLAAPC
Non-standard residues stand in square brackets, D forms with d. No end group written: not given here. Flu = 5-carboxyfluorescein, coupled after removal of the final Fmoc group; pY = N[C@@H](Cc1ccc(OP(=O)(O)O)cc1)C(=O)O
Observed Property: Kd

binder="Flu-EDDT[pY]DGYE [fluoresceinated cortactin phospho-Y482 peptide]" reported_measurement="> 5 µM"
